Recorded values, source PubChem BioAssay AID2060508.

Tested on: 454973-116-R2-J3-PDC spheroids, viability, % test/control
Test: Anticancer human tumor 454973-116-R2-J3-PDC patient-derived pancreatic carcinoma cell line growth inhibition [GQUAD]
Conditions: second compound 1 µM; first compound 0.316 µM; active compounds read low; spheroids with HUVEC and MSC
Result Type: viability, T/C (%)

Compound	Result Type	Quantitative Result
CC(C)(O)C1CCC(Nc2ccc3ncc(-c4cccc(C(F)(F)F)c4)n3n2)CC1 (stereo not given) + Cc1cnc(CNC(=O)c2c(=O)c3ccc(N4CCCN(C)CC4)nc3n3c2sc2ccccc23)cn1	viability, T/C	65.1
Cc1cccc(N(C)C(=O)C2C(O)CCN2c2nc(C)cc(C(F)(F)F)c2C#N)c1 (stereo not given) + Cc1[nH]c2ccc(F)cc2c1-c1nc2c3cccnc3c3ncccc3c2[nH]1	viability, T/C	113
COc1cccc2c1C(=O)c1c(O)c3c(c(O)c1C2=O)CC(O)(C(=O)CO)CC3OC1CC(N)C(O)C(C)O1 (stereo not given) + CN(C)c1ccc(Nc2c3ccc(NC(=O)CCN4CCCC4)cc3nc3cc(NC(=O)CCN4CCCC4)ccc23)cc1	viability, T/C	36
CC(C)n1c(=O)n(C)c2cnc3cc(F)c(-c4ccc(OCCCN5CCCCC5)nc4)cc3c21 + Cc1cnc(CNC(=O)c2c(=O)c3ccc(N4CCCN(C)CC4)nc3n3c2sc2ccccc23)cn1	viability, T/C	46.9
CC(C)n1c(=O)n(C)c2cnc3cc(F)c(-c4ccc(OCCCN5CCCCC5)nc4)cc3c21 + CN(C)c1ccc(Nc2c3ccc(NC(=O)CCN4CCCC4)cc3nc3cc(NC(=O)CCN4CCCC4)ccc23)cc1	viability, T/C	91.7
CC1COCCN1c1cc(C2(O)CC3CCC(C2)O3)c2cnn(-c3ccn[nH]3)c2n1 (stereo not given) + CN(C)c1ccc(Nc2c3ccc(NC(=O)CCN4CCCC4)cc3nc3cc(NC(=O)CCN4CCCC4)ccc23)cc1	viability, T/C	33.1
CC1COCCN1c1cc(C2(S(C)(=N)=O)CC2)nc(-c2ccnc3[nH]ccc23)n1 (stereo not given) + CN(C)c1ccc(Nc2c3ccc(NC(=O)CCN4CCCC4)cc3nc3cc(NC(=O)CCN4CCCC4)ccc23)cc1	viability, T/C	110
O=C(NO)c1cnc(N2CCN(S(=O)(=O)c3ccc4ccccc4c3)CC2)nc1 + CN(C)c1ccc(Nc2c3ccc(NC(=O)CCN4CCCC4)cc3nc3cc(NC(=O)CCN4CCCC4)ccc23)cc1	viability, T/C	30.3
CCc1c2c(nc3ccc(O)cc13)-c1cc3c(c(=O)n1C2)COC(=O)[C@]3(O)CC + CN(C)c1ccc(Nc2c3ccc(NC(=O)CCN4CCCC4)cc3nc3cc(NC(=O)CCN4CCCC4)ccc23)cc1	viability, T/C	5.09
C=CCn1c(=O)c2cnc(Nc3ccc(N4CCN(C)CC4)cc3)nc2n1-c1cccc(C(C)(C)O)n1 + Cc1cnc(CNC(=O)c2c(=O)c3ccc(N4CCCN(C)CC4)nc3n3c2sc2ccccc23)cn1	viability, T/C	48.2

###

System: 454973-116-R2-J3-PDC spheroids, viability, % test/control
Experiment: Anticancer human tumor 454973-116-R2-J3-PDC cell line growth inhibition [GQUAD];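 also: spheroids exposed to compounds for seven days; 100% = DMSO vehicle control viability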
Conditions: second compound 10 µM; first compound 0.1 µM; active compounds read low; spheroids with HUVEC and MSC
Each item that follows carries a reported viability, T/C.
Result Type: viability, T/C (%)

Compound	Quantitative Result
COc1ccc([C@@H](O)c2cc(-c3ncnc4cc(N5CCOCC5)ccc34)c(F)cc2Cl)nn1 + CN(C)c1ccc(Nc2c3ccc(NC(=O)CCN4CCCC4)cc3nc3cc(NC(=O)CCN4CCCC4)ccc23)cc1	68.2
O=C(NO)c1cnc(N2CCN(S(=O)(=O)c3ccc4ccccc4c3)CC2)nc1 + CN(C)c1ccc(Nc2c3ccc(NC(=O)CCN4CCCC4)cc3nc3cc(NC(=O)CCN4CCCC4)ccc23)cc1	55.8
COc1cccc2c1C(=O)c1c(O)c3c(c(O)c1C2=O)CC(O)(C(=O)CO)CC3OC1CC(N)C(O)C(C)O1 (stereo not drawn) + CN(C)c1ccc(Nc2c3ccc(NC(=O)CCN4CCCC4)cc3nc3cc(NC(=O)CCN4CCCC4)ccc23)cc1	61.1

###

Test system: 454973-116-R2-J3-PDC spheroids, viability, % test/control
Assay: Anticancer human tumor 454973-116-R2-J3-PDC cell line growth inhibition [GQUAD]; active = viability on the fitted dose curve at most 10% of control; inactive = the rest;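 also: spheroids exposed to compounds for seven days; 100% = DMSO vehicle control viability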
Conditions: second compound 0.1 µM; first compound 0.316 µM; spheroids with HUVEC and MSC
Text: DNA G-quadruplex Stabilizer Agents in Combinations in Complex Spheroids A high-throughput screen of multi-cell type tumor spheroids was designed to identify active combinations of DNA G-quadruplex stabilizer agents and targeted small molecules. […] Compounds. […] If the clinical Cmax for an agent had not been determined, the highest concentration tested was 10 microM. […]
Classes used: 1 = active, 0 = inactive

Compound	Group
CC(=O)O[C@H]1C(=O)[C@@]2(C)[C@H]([C@H](OC(=O)c3ccccc3)[C@]3(O)C[C@H](OC(=O)[C@H](O)[C@@H](NC(=O)c4ccccc4)c4ccccc4)C(C)=C1C3(C)C)[C@]1(OC(C)=O)CO[C@@H]1C[C@@H]2O + CN(C)c1ccc(Nc2c3ccc(NC(=O)CCN4CCCC4)cc3nc3cc(NC(=O)CCN4CCCC4)ccc23)cc1	1
C=CCn1c(=O)c2cnc(Nc3ccc(N4CCN(C)CC4)cc3)nc2n1-c1cccc(C(C)(C)O)n1 + Cc1cnc(CNC(=O)c2c(=O)c3ccc(N4CCCN(C)CC4)nc3n3c2sc2ccccc23)cn1	0
CC(C)n1c(=O)n(C)c2cnc3cc(F)c(-c4ccc(OCCCN5CCCCC5)nc4)cc3c21 + CN(C)c1ccc(Nc2c3ccc(NC(=O)CCN4CCCC4)cc3nc3cc(NC(=O)CCN4CCCC4)ccc23)cc1	0
Nc1ccn(C2OC(CO)C(O)C2(F)F)c(=O)n1 (stereo not given) + CN(C)c1ccc(Nc2c3ccc(NC(=O)CCN4CCCC4)cc3nc3cc(NC(=O)CCN4CCCC4)ccc23)cc1	0
Cn1ncnc1[C@H]1c2n[nH]c(=O)c3cc(F)cc(c23)N[C@@H]1c1ccc(F)cc1 + Cc1cnc(CNC(=O)c2c(=O)c3ccc(N4CCCN(C)CC4)nc3n3c2sc2ccccc23)cn1	0
Nc1ccn(C2OC(CO)C(O)C2(F)F)c(=O)n1 (stereo not given) + Cc1cnc(CNC(=O)c2c(=O)c3ccc(N4CCCN(C)CC4)nc3n3c2sc2ccccc23)cn1	0
C#Cc1c(F)ccc2cc(O)cc(-c3ncc4c(N5CC6CCC(C5)N6)nc(OCC56CCCN5CC(F)C6)nc4c3F)c12 (stereo not given) + Cc1[nH]c2ccc(F)cc2c1-c1nc2c3cccnc3c3ncccc3c2[nH]1	0
CCCS(=O)(=O)Nc1ccc(F)c(C(=O)c2c[nH]c3ncc(-c4ccc(Cl)cc4)cc23)c1F + Cc1cnc(CNC(=O)c2c(=O)c3ccc(N4CCCN(C)CC4)nc3n3c2sc2ccccc23)cn1	0
CC(C)n1c(=O)n(C)c2cnc3cc(F)c(-c4ccc(OCCCN5CCCCC5)nc4)cc3c21 + Cc1[nH]c2ccc(F)cc2c1-c1nc2c3cccnc3c3ncccc3c2[nH]1	0
C=CCn1c(=O)c2cnc(Nc3ccc(N4CCN(C)CC4)cc3)nc2n1-c1cccc(C(C)(C)O)n1 + CN(C)c1ccc(Nc2c3ccc(NC(=O)CCN4CCCC4)cc3nc3cc(NC(=O)CCN4CCCC4)ccc23)cc1	0

###

Tested on: 454973-116-R2-J3-PDC spheroids, viability, % test/control
Experiment: Anticancer human tumor 454973-116-R2-J3-PDC cell line growth inhibition [GQUAD];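 also: spheroids exposed to compounds for seven days; 100% = DMSO vehicle control viability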
Settings: second compound 0.1 µM; first compound 0.00316 µM; active compounds read low; spheroids with HUVEC and MSC
Just a reminder that ties go to 0.0: only viability, T/C strictly below 70% counts as 1.0.

Molecule	Study System	Group
CCc1c2c(nc3ccc(O)cc13)-c1cc3c(c(=O)n1C2)COC(=O)[C@]3(O)CC + CN(C)c1ccc(Nc2c3ccc(NC(=O)CCN4CCCC4)cc3nc3cc(NC(=O)CCN4CCCC4)ccc23)cc1	454973-116-R2-J3-PDC spheroids, viability, % test/control	1.0
Cc1[nH]c2ccccc2c1CCNCc1ccc(/C=C/C(=O)NO)cc1 + Cc1cnc(CNC(=O)c2c(=O)c3ccc(N4CCCN(C)CC4)nc3n3c2sc2ccccc23)cn1	454973-116-R2-J3-PDC spheroids, viability, % test/control	0.0
CCc1c2c(nc3ccc(O)cc13)-c1cc3c(c(=O)n1C2)COC(=O)[C@]3(O)CC + Cc1cnc(CNC(=O)c2c(=O)c3ccc(N4CCCN(C)CC4)nc3n3c2sc2ccccc23)cn1	454973-116-R2-J3-PDC spheroids, viability, % test/control	1.0
Cn1ncnc1[C@H]1c2n[nH]c(=O)c3cc(F)cc(c23)N[C@@H]1c1ccc(F)cc1 + Cc1[nH]c2ccc(F)cc2c1-c1nc2c3cccnc3c3ncccc3c2[nH]1	454973-116-R2-J3-PDC spheroids, viability, % test/control	0.0
Cn1ncnc1[C@H]1c2n[nH]c(=O)c3cc(F)cc(c23)N[C@@H]1c1ccc(F)cc1 + Cc1cnc(CNC(=O)c2c(=O)c3ccc(N4CCCN(C)CC4)nc3n3c2sc2ccccc23)cn1	454973-116-R2-J3-PDC spheroids, viability, % test/control	0.0
CC[C@@]1(O)C(=O)OCc2c1cc1n(c2=O)Cc2cc3c(CN(C)C)c(O)ccc3nc2-1 + Cc1cnc(CNC(=O)c2c(=O)c3ccc(N4CCCN(C)CC4)nc3n3c2sc2ccccc23)cn1	454973-116-R2-J3-PDC spheroids, viability, % test/control	0.0
CCc1c2c(nc3ccc(O)cc13)-c1cc3c(c(=O)n1C2)COC(=O)[C@]3(O)CC + Cc1[nH]c2ccc(F)cc2c1-c1nc2c3cccnc3c3ncccc3c2[nH]1	454973-116-R2-J3-PDC spheroids, viability, % test/control	1.0
